Tested on: SW 1573
Protocol: relative viability (nuclei count vs DMSO), 5 days (fraction); higher = more cells survive
Condition description: first compound 0.1265 µM
Assign labels as follows, please: fulfilled for relative viability below 0.5; not fulfilled for relative viability equal to or exceeding 0.5.

### Prompt Take the molecule C[C@@H]1CN(CC(=O)Nc2ccc3c(c2)Cc2cccc(-c4cc(=O)cc(N5CCOCC5)o4)c2S3)C[C@H](C)O1 + C[C@@H](Oc1cc(-c2cnn(C3CCNCC3)c2)cnc1N)c1c(Cl)ccc(F)c1Cl [Crizotinib] (partner 1 µM) and say whether its relative viability is less than 0.5.
### Response not fulfilled

### Prompt Take the molecule Clc1ccc(Nc2nnc(Cc3ccncc3)c3ccccc23)cc1 [Vatalanib] + O=C(c1cc(Cc2n[nH]c(=O)c3ccccc23)ccc1F)N1CCN(C(=O)C2CC2)CC1 [Olaparib] (partner 8 µM) and say whether its relative viability is less than 0.5.
### Response not fulfilled

### Prompt Take the molecule C[C@@H]1CN(CC(=O)Nc2ccc3c(c2)Cc2cccc(-c4cc(=O)cc(N5CCOCC5)o4)c2S3)C[C@H](C)O1 + O=C(c1cc(Cc2n[nH]c(=O)c3ccccc23)ccc1F)N1CCN(C(=O)C2CC2)CC1 [Olaparib] (partner 8 µM) and say whether its relative viability is less than 0.5.
### Response not fulfilled

### Prompt Take the molecule COc1cc(N2CCC(C(N)=O)CC2)ccc1Nc1nc(N)c(Cl)c(Nc2ccccc2S(=O)(=O)C(C)C)n1 [HG-5-88-01] + CS(=O)(=O)N1CCN(Cc2cc3nc(-c4cccc5[nH]ncc45)nc(N4CCOCC4)c3s2)CC1 [Pictilisib] (partner 1 µM) and say whether its relative viability is less than 0.5.
### Response not fulfilled

### Prompt Take the molecule COc1cc(N2CCC(C(N)=O)CC2)ccc1Nc1nc(N)c(Cl)c(Nc2ccccc2S(=O)(=O)C(C)C)n1 [HG-5-88-01] + Cc1cc(Nc2cc(N3CCN(C)CC3)nc(Sc3ccc(NC(=O)C4CC4)cc3)n2)n[nH]1 [Tozasertib] (partner 0.1 µM) and say whether its relative viability is less than 0.5.
### Response fulfilled

### Prompt Take the molecule COc1cc(N2CCC(C(N)=O)CC2)ccc1Nc1nc(N)c(Cl)c(Nc2ccccc2S(=O)(=O)C(C)C)n1 [HG-5-88-01] + N=C(N)NC(=N)NCCc1ccccc1 [Phenformin] (partner 250 µM) and say whether its relative viability is less than 0.5.
### Response fulfilled

### Prompt Take the molecule Clc1ccc(Nc2nnc(Cc3ccncc3)c3ccccc23)cc1 [Vatalanib] + CCNC(=O)c1noc(-c2cc(C(C)C)c(O)cc2O)c1-c1ccc(CN2CCOCC2)cc1 [Luminespib] (partner 0.01 µM) and say whether its relative viability is less than 0.5.
### Response fulfilled

### Prompt Take the molecule C[C@@H]1CN(CC(=O)Nc2ccc3c(c2)Cc2cccc(-c4cc(=O)cc(N5CCOCC5)o4)c2S3)C[C@H](C)O1 + Nc1ncn([C@H]2C[C@H](O)[C@@H](CO)O2)c(=O)n1 [Decitabine] (partner 2 µM) and say whether its relative viability is less than 0.5.
### Response not fulfilled

### Prompt Take the molecule COc1cc(N2CCC(C(N)=O)CC2)ccc1Nc1nc(N)c(Cl)c(Nc2ccccc2S(=O)(=O)C(C)C)n1 [HG-5-88-01] + CCNC(=O)c1noc(-c2cc(C(C)C)c(O)cc2O)c1-c1ccc(CN2CCOCC2)cc1 [Luminespib] (partner 0.01 µM) and say whether its relative viability is less than 0.5.
### Response fulfilled
